Record form. Attribute: remaining at 1 h, 10 µM. Fill in for each entry.
measurementProtocol: Metabolic stability of the compound in mouse liver microsomes assessed as parent compound remaining at 10 uM measured after 60 mins in presence of NADPH regenerating system by LC/MS analysis
Type: ADME, Microsome
statedConditions: read-out: Stability
One number for each entry, in %.

[O-][S+](CCN1CCCN(CC(O)Cc2ccccc2)CC1)C(c1ccc(F)cc1)c1ccc(F)cc1 (configuration not stated) = 0
CC(O)CN1C(C)CN(CCSC(c2ccc(F)cc2)c2ccc(F)cc2)CC1C (configuration not stated) = 68
CC(O)CN1CCCN(CCSC(c2ccc(F)cc2)c2ccc(F)cc2)CC1 (configuration not stated) = 12
[O-][S+](CCN1CCCN(CC(O)Cc2ccc(F)cc2)CC1)C(c1ccc(F)cc1)c1ccc(F)cc1 (configuration not stated) = 15
CC(O)CN1CCN(CCSC(c2ccc(F)cc2)c2ccc(F)cc2)CC1 (configuration not stated) = 6

Would you mind giving remaining at 1 h, 10 µM for every compound in the list below?
1. [O-][S+](CCN1CCN(CC(O)Cc2ccccc2)CC1)C(c1ccc(F)cc1)c1ccc(F)cc1 (configuration not stated)
2. COc1ccc(CC(O)CN2CCCN(CC[S+]([O-])C(c3ccc(F)cc3)c3ccc(F)cc3)CC2)cc1 (configuration not stated)

1. 34
2. 20

====

Species on record: Rattus norvegicus
measurementProtocol: Selectivity ratio of Ki for SERT in Sprague-Dawley rat brainstem to Ki for DAT in Sprague-Dawley rat striatum
measuredMetric: Ratio Ki

OC(Cc1ccccc1)CN1CCC(CCSC(c2ccc(F)cc2)c2ccc(F)cc2)CC1 (stereo unspecified) = 34
[O-][S+](CCN1CCCN(c2ncccn2)CC1)C(c1ccc(F)cc1)c1ccc(F)cc1 (stereo unspecified) = 1
COc1ccc(CC(O)CN2CCCN(CCSC(c3ccc(F)cc3)c3ccc(F)cc3)CC2)cc1 (stereo unspecified) = 22

Would you mind giving Ratio Ki for every compound in the list below?
1. CC(F)CN1[C@H](C)CN(CCSC(c2ccc(F)cc2)c2ccc(F)cc2)C[C@@H]1C (stereo partly specified)
2. C[C@@H](O)CN1CCC(CCSC(c2ccc(F)cc2)c2ccc(F)cc2)CC1
3. CC(F)CN1[C@H](C)CN(CC[S+]([O-])C(c2ccc(F)cc2)c2ccc(F)cc2)C[C@@H]1C (stereo partly specified)
4. C[C@H](O)CN1CCC(CCSC(c2ccc(F)cc2)c2ccc(F)cc2)CC1
5. [O-][S+](CCN1CCCN(CC(O)Cc2ccccc2)CC1)C(c1ccc(F)cc1)c1ccc(F)cc1 (stereo unspecified)
6. COc1ccc(N2CCN(CC[S+]([O-])C(c3ccc(F)cc3)c3ccc(F)cc3)CC2)cc1 (stereo unspecified)

1: 99; 2: 9; 3: > 95; 4: 35; 5: 421; 6: 3

Would you mind giving Ratio Ki for every compound in the list below?
1. CC(O)CN1CCC(CC[S+]([O-])C(c2ccc(F)cc2)c2ccc(F)cc2)CC1 (stereo unspecified)
2. CC(O)CN1CCCN(CC[S+]([O-])C(c2ccc(F)cc2)c2ccc(F)cc2)CC1 (stereo unspecified)

89
62

====

Values of Ki reported for Sodium-dependent serotonin transporter (Rattus norvegicus) appear below.
Answers are plain numbers, in µM.

[O-][S+](CCN1CCN(c2ncccn2)CC1)C(c1ccc(F)cc1)c1ccc(F)cc1 (centres undefined) = 46.3
C[C@@H](O)CN1CCC(CC[S+]([O-])C(c2ccc(F)cc2)c2ccc(F)cc2)CC1 (some centres undefined) = 34.8
COc1ccc(N2CCN(CC[S+]([O-])C(c3ccc(F)cc3)c3ccc(F)cc3)CC2)cc1 (centres undefined) = 18.1

Would you mind giving Ki for every molecule in the list below?
1. COc1ccc(N2CCN(CCSC(c3ccc(F)cc3)c3ccc(F)cc3)CC2)cc1
2. [O-][S+](CCN1CCCN(CC(O)Cc2ccccc2)CC1)C(c1ccc(F)cc1)c1ccc(F)cc1 (centres undefined)
3. [O-][S+](CCN1CCCN(c2ncccn2)CC1)C(c1ccc(F)cc1)c1ccc(F)cc1 (centres undefined)
4. CC(O)CN1CCCN(CC[S+]([O-])C(c2ccc(F)cc2)c2ccc(F)cc2)CC1 (centres undefined)

0.78
3.52
28
26

Would you mind giving Ki for every molecule in the list below?
1. CC(F)CN1[C@H](C)CN(CCSC(c2ccc(F)cc2)c2ccc(F)cc2)C[C@@H]1C (some centres undefined)
2. C[C@@H](O)CN1CCC(CCSC(c2ccc(F)cc2)c2ccc(F)cc2)CC1
3. Fc1ccc(C(SCCN2CCN(c3ccncc3)CC2)c2ccc(F)cc2)cc1

13.4
0.759
0.136

Would you mind giving Ki for every molecule in the list below?
1. Fc1ccc(C(SCCN2CCCN(c3ncccn3)CC2)c2ccc(F)cc2)cc1
2. CC(O)CN1CCCN(CCSC(c2ccc(F)cc2)c2ccc(F)cc2)CC1 (centres undefined)
3. COc1ccc(CC(O)CN2CCCN(CC[S+]([O-])C(c3ccc(F)cc3)c3ccc(F)cc3)CC2)cc1 (centres undefined)
4. [O-][S+](CCC1CCN(CC(O)Cc2ccccc2)CC1)C(c1ccc(F)cc1)c1ccc(F)cc1 (centres undefined)

1. 0.732
2. 2.43
3. 2.67
4. 0.818
